- System: BT-549 breast
- assay.info: NCI tumour cell line growth inhibition, 48 h
readout.type: log10(TGI) (log10 of the value in µM)
All values: base-10 log of TGI in µM.

Entry COc1ccccc1CNCCCN1C(=O)c2ccc3c4c(ccc(c24)C1=O)C(=O)N(CCCNCCCN)C3=O , log10(TGI) reported as 0.58

So for O=C(Cc1ccc(Cl)c(Cl)c1)N(CCc1ccc(Cl)c(Cl)c1)CCN1CCCC1 , the logged log10(TGI) turned out to be 0.85

For record N#CC1=C(N)OC(c2ccc([N+](=O)[O-])cc2)C1(C#N)C#N (stereo not given) the listed log10(TGI) is 1.52

Lab note: measured log10(TGI) of COc1cc(-c2cc(-c3nc4ccc(Cl)cc4[nH]3)[nH]n2)cc(OC)c1OC was 0.92

Lab note: measured log10(TGI) of O=C1C=C(NCCc2cc(Br)c(O)c(Br)c2)C(=O)c2ncccc21 was 0.71

Input CCOC(=O)c1c(C(F)(F)F)n([O-])c2ccc(OC)cc2[n+]1=O . Output log10(TGI): 1.53

So for Nc1c(C(=O)Nc2ccccc2Cl)sc2nc3c(cc12)CCCCCC3 , the logged log10(TGI) turned out to be 1.46

molecule COc1ccc(/C=C/c2n[nH]c3ccc(N4CCOC4=O)cc23)cc1 , log10(TGI) observed: 0.73

Reported log10(TGI) for COc1ccc(/C(C)=N/OC(=O)c2c(-c3ccccc3Cl)noc2C)cc1CN1CCOCC1 was 1.74
